# assayText: Acute toxicity in BALB/c mouse assessed as animal death
# settings: in vivo

| smilesRepresentation | LD50 |
| --- | --- |
| CS(=O)(=O)Nc1ccc(-c2ccnc(Nc3ccc(N4CCN(CC(=O)Nc5ccc(C(=O)NO)cc5)CC4)cc3)n2)cc1 | > 7510 mg/kg |

---

# system: Tyrosine-protein kinase JAK2 (Homo sapiens, UniProt O60674)
# Sequence (O60674 whole entry): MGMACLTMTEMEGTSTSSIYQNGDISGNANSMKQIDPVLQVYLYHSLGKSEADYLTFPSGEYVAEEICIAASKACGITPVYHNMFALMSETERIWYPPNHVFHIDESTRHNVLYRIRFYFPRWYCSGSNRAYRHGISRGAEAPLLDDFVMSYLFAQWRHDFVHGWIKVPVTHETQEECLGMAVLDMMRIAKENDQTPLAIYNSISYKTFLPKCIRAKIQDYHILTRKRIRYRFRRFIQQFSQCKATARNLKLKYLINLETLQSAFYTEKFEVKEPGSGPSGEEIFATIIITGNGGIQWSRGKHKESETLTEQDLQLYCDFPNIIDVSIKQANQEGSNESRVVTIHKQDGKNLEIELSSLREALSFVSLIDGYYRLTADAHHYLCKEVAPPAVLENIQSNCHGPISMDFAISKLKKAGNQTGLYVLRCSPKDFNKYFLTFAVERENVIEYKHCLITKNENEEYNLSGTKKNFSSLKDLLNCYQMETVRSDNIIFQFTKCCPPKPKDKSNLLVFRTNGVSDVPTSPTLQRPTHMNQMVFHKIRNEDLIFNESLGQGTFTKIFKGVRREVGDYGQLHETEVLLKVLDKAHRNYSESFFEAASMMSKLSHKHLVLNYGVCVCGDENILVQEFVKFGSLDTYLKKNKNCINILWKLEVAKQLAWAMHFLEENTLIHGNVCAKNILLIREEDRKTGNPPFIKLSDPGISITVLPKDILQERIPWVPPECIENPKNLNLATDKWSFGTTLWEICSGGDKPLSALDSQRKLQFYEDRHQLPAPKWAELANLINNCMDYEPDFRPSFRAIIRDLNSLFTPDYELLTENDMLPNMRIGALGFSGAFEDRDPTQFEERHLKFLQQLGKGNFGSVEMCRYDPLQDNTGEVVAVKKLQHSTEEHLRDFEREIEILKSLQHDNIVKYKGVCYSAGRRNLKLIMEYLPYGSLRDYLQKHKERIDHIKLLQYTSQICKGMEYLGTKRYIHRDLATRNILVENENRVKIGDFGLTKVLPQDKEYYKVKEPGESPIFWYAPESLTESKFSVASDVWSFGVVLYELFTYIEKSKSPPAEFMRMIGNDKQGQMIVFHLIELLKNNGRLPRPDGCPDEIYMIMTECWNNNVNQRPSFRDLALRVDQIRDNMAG
# assayText: Inhibition of JAK2 (unknown origin) using FAM-labelled peptide and ATP at 100 nM measured after 25 mins incubation relative to control

| smilesRepresentation | inhibition, % |
| --- | --- |
| CS(=O)(=O)Nc1ccc(-c2ccnc(Nc3ccc(N4CCN(CC(=O)NCCC(=O)NO)CC4)cc3)n2)cc1 | 99 |
| CS(=O)(=O)Nc1ccc(-c2ccnc(Nc3ccc(-c4cn(CC(=O)NCCCCC(=O)NO)nn4)cc3)n2)cc1 | 98 |
| CS(=O)(=O)Nc1ccc(-c2ccnc(Nc3ccc(-c4cn(CC(=O)NCCCCCC(=O)NO)nn4)cc3)n2)cc1 | 98 |
| CS(=O)(=O)Nc1ccc(-c2ccnc(Nc3ccc(-c4cn(CC(=O)NCCCCCCC(=O)NO)nn4)cc3)n2)cc1 | 99 |
| CS(=O)(=O)Nc1ccc(-c2ccnc(Nc3ccc(N4CCN(CC(=O)Nc5ccc(C(=O)NO)cc5)CC4)cc3)n2)cc1 | 99 |
| CS(=O)(=O)Nc1ccc(-c2ccnc(Nc3ccc(N4CCN(CC(=O)Nc5ccc(/C=C/C(=O)NO)cc5)CC4)cc3)n2)cc1 | 99 |
| CS(=O)(=O)Nc1ccc(-c2ccnc(Nc3ccc(N4CCN(CC(=O)NCCCCCCCC(=O)NO)CC4)cc3)n2)cc1 | 100 |
| CS(=O)(=O)Nc1ccc(-c2ccnc(Nc3ccc(N4CCN(CC(=O)Nc5ccc(C(=O)NO)s5)CC4)cc3)n2)cc1 | 99 |

---

# system: Tyrosine-protein kinase JAK2 (Homo sapiens, UniProt O60674)

| smilesRepresentation | system | IC50 [nM] |
| --- | --- | --- |
| CS(=O)(=O)Nc1ccc(-c2ccnc(Nc3ccc(N4CCN(CC(=O)Nc5ccc(C(=O)NO)cc5)CC4)cc3)n2)cc1 | Tyrosine-protein kinase JAK2 (Homo sapiens, UniProt O60674) | 0.49 |

---

The following molecules are listed with their measured CLint scaled at 1 µM values.
# assayText: Metabolic stability of the compound in female ICR mouse liver microsomes assessed as clearance at 1 uM measured up to 45 mins by LC-MS/MS analysis
# Format: ADME
# settings: read-out: CLH

| smilesRepresentation | outputUnit | CLint scaled at 1 µM |
| --- | --- | --- |
| CS(=O)(=O)Nc1ccc(-c2ccnc(Nc3ccc(N4CCN(CC(=O)Nc5ccc(/C=C/C(=O)NO)cc5)CC4)cc3)n2)cc1 | mL/min/kg | 97.5 |
| CS(=O)(=O)Nc1ccc(-c2ccnc(Nc3ccc(N4CCN(CC(=O)Nc5ccc(C(=O)NO)cc5)CC4)cc3)n2)cc1 | mL/min/kg | 138 |

---

# Tested on: RAW264.7
# assayText: cells
# Format: functional
# settings: Mus musculus, time 24 hrs
# Description: Antiinflammatory activity in mouse RAW264.7 cells assessed as inhibition of LPS-induced NO release at 0.4 uM incubated for 24 hrs relative to control

| compound | inhibition at 0.4 µM [%] |
| --- | --- |
| CS(=O)(=O)Nc1ccc(-c2ccnc(Nc3ccc(N4CCN(CC(=O)Nc5ccc(C(=O)NO)cc5)CC4)cc3)n2)cc1 | 105 |
| N#CCNC(=O)c1ccc(-c2ccnc(Nc3ccc(N4CCOCC4)cc3)n2)cc1 [MOMELOTINIB] | 94.8 |
| CS(=O)(=O)Nc1ccc(-c2ccnc(Nc3ccc(N4CCN(CC(=O)Nc5ccc(C(=O)NO)s5)CC4)cc3)n2)cc1 | 82.1 |
| CS(=O)(=O)Nc1ccc(-c2ccnc(Nc3ccc(N4CCN(CC(=O)Nc5ccc(/C=C/C(=O)NO)cc5)CC4)cc3)n2)cc1 | 110 |
| CS(=O)(=O)Nc1ccc(-c2ccnc(Nc3ccc(N4CCN(CC(=O)NCCCCCCCC(=O)NO)CC4)cc3)n2)cc1 | 71.3 |
| CS(=O)(=O)Nc1ccc(-c2ccnc(Nc3ccc(N4CCN(CC(=O)NCCCCCCC(=O)NO)CC4)cc3)n2)cc1 | 73.9 |

# credit: ChEMBL document CHEMBL6078632
